Values from ChEMBL document CHEMBL5291721

Target: 5-hydroxytryptamine receptor 2B (Homo sapiens)
Type: functional, cell-based
Recorded measurements of AC50, one per entry

input: Query (molecule): O=C(O)C1=C(CSc2nnnn2CS(=O)(=O)O)CS[C@@H]2[C@H](NC(=O)[C@H](O)c3ccccc3)C(=O)N12 ; field requested: AC50
output: > 30 µM

input: Query (molecule): C[C@H]1COc2c(C3(N)CC3)c(F)cc3c(=O)c(C(=O)O)cn1c23 ; field requested: AC50
output: > 10 µM

input: Query (molecule): Cc1cccc(Nc2ccccc2C(=O)O)c1C ; field requested: AC50
output: > 10 µM

----------
Biological target: 5-hydroxytryptamine receptor 2B (Homo sapiens, UniProt P41595)
Sequence (P41595 whole entry): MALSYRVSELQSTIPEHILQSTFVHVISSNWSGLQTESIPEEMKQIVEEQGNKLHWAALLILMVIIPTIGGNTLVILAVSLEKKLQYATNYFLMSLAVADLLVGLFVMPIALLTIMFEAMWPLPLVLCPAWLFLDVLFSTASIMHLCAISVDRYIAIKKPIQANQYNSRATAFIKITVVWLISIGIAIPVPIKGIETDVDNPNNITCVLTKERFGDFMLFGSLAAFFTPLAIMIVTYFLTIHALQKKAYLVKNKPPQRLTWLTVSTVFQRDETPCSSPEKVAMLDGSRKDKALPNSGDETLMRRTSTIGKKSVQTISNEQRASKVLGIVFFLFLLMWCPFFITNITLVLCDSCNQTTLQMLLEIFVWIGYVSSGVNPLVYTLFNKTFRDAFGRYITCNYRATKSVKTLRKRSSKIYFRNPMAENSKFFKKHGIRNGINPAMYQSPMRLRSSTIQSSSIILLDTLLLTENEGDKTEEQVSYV
Type: functional, cell-based
parameter: AC50

A selection of reference data follows.
{"compound": "O=C(O)CCCCCCCC(=O)O", "AC50": "> 10 µM"}
{"compound": "C[C@H](N)[C@H](O)c1cccc(O)c1", "AC50": "12 µM"}
{"compound": "CC/C(=C(\\c1ccccc1)c1ccc(OCCN(C)C)cc1)c1ccccc1", "AC50": "> 10 µM"}
{"compound": "CC(Oc1c(Cl)cccc1Cl)C1=NCCN1 (centres undefined)", "AC50": "> 30 µM"}
{"compound": "Cc1cc(C(C)(C)C)c(O)c(C)c1CC1=NCCN1", "AC50": "0.266 µM"}
{"compound": "CCN1CCN(C(=O)N[C@@H](C(=O)N[C@@H]2C(=O)N3C(C(=O)O)=C(CSc4nnnn4C)CS[C@H]23)c2ccc(O)cc2)C(=O)C1=O", "AC50": "> 30 µM"}
{"compound": "Cc1ccc(-c2cc(C(F)(F)F)nn2-c2ccc(S(N)(=O)=O)cc2)cc1", "AC50": "> 10 µM"}
{"compound": "Brc1c(NC2=NCCN2)ccc2nccnc12", "AC50": "> 30 µM"}

input: Query (compound): COc1cc2nc(N(C)CCCNC(=O)C3CCCO3)nc(N)c2cc1OC (centres undefined) ; field requested: AC50
output: > 30 µM

----------
Recorded below: AC50, system 5-hydroxytryptamine receptor 1A (Homo sapiens, UniProt P08908). Also: assay procedure not described here.

A selection of reference data follows.
{"molecule": "CCCCc1ncc(/C=C(\\Cc2cccs2)C(=O)O)n1Cc1ccc(C(=O)O)cc1", "AC50": "> 10 µM"}
{"molecule": "Cc1c(C(=O)NN2CCCCC2)nn(-c2ccc(Cl)cc2Cl)c1-c1ccc(Cl)cc1", "AC50": "> 10 µM"}
{"molecule": "COc1ccccc1OCCNCC(O)c1ccc(C)c(S(N)(=O)=O)c1 (stereo not given)", "AC50": "0.052 µM"}
{"molecule": "NCC(CC(=O)O)c1ccc(Cl)cc1 (stereo not given)", "AC50": "> 10 µM"}
{"molecule": "CCc1c(Cl)c(O)c(Cl)c(O)c1C(=O)O[C@H]1[C@H](O)[C@H](OC)[C@H](OC/C2=C\\C=C\\C[C@H](O)/C(C)=C/[C@H](CC)[C@@H](O[C@@H]3OC(C)(C)[C@@H](OC(=O)C(C)C)[C@H](O)[C@@H]3O)/C(C)=C/C(C)=C/C[C@@H]([C@@H](C)O)OC2=O)O[C@@H]1C", "AC50": "> 10 µM"}
{"molecule": "OC(CNCC(O)C1CCc2cc(F)ccc2O1)C1CCc2cc(F)ccc2O1 (stereo not given)", "AC50": "0.14 µM"}

input: API: value(readout= AC50, system= 5-hydroxytryptamine receptor 1A (Homo sapiens, UniProt P08908), query= CN1CCC(=C2c3ccccc3CCc3sccc32)CC1 ); also: assay procedure not described here
output: 0.338 µM

input: API: value(readout= AC50, system= 5-hydroxytryptamine receptor 1A (Homo sapiens, UniProt P08908), query= CCCN(CCC)C(=O)C(CCC(=O)O)NC(=O)c1ccccc1 (stereo not given) [PROGLUMIDE] ); also: assay procedure not described here
output: > 10 µM

input: API: value(readout= AC50, system= 5-hydroxytryptamine receptor 1A (Homo sapiens, UniProt P08908), query= Cc1cn([C@H]2C=C[C@@H](CO)O2)c(=O)[nH]c1=O ); also: assay procedure not described here
output: > 10 µM

input: API: value(readout= AC50, system= 5-hydroxytryptamine receptor 1A (Homo sapiens, UniProt P08908), query= Cn1nnc2c(C(N)=O)ncn2c1=O [TEMOZOLOMIDE] ); also: assay procedure not described here
output: > 10 µM

input: API: value(readout= AC50, system= 5-hydroxytryptamine receptor 1A (Homo sapiens, UniProt P08908), query= CC(C)(C)c1cc(C(C)(C)C)c(NC(=O)c2c[nH]c3ccccc3c2=O)cc1O ); also: assay procedure not described here
output: > 10 µM
